This collection of values is drawn from patent US20070179137A1.

test system: bovine viral diarrhea virus; assay: Inhibition of bovine viral diarrhea virus in MDBK cells; type: cell-based; details: Bovine viral diarrhea virus isolates and strains
outcome.measure: EC50 (µM)
Answer with a number only, understood to be in µM.

// query EC50 value for entry `Cc1cccn2c(=O)c(C=C3SC(=S)N(Cc4ccccc4)C3=O)c(NCCN3CCOCC3)nc12`
6

---

test: Neutral red uptake cytotoxicity assay; conditions: human
outcome.measure: CC50 at 7 days (µg/mL)
Answer with a number only, understood to be in µg/mL.

// query CC50 at 7 days value for entry `CCCCN1C(=O)/C(=C/c2c(N3CCN(C)CC3)nc3c(C)cccn3c2=O)SC1=S`
11.8
